target: 5-HT2C (Homo sapiens); construct: purchased NIMH Psychoactive Drug Screening Program (PDSP); assay: PDSP primary binding 5-HT2C; settings: 1.5 h; primary binding, 10,000 nM; last figure of the line = mean of the 4 before it; read-out: 5-HT2C, PDSP raw data, mean
Sequence (P28335 33-458): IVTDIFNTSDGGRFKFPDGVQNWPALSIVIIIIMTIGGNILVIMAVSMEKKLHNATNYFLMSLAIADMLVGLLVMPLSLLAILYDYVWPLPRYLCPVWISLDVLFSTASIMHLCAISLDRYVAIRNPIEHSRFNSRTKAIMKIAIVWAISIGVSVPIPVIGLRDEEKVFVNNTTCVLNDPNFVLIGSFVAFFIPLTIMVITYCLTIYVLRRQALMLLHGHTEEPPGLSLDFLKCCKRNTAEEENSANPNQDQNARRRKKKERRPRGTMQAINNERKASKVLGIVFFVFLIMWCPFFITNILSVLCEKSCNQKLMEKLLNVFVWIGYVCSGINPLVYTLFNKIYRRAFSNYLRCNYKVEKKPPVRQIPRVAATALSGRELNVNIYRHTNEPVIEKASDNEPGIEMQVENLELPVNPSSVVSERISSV
// reported inhibition at 10 µM per item
Reply with just the number (in %).

                        structure_as_smiles  reported
0  CC(C)c1noc(-c2ncn3c2[C@@H](C)N=C(c2ccccc2F)c2cc(Cl)ccc2-3)n1      17.5
1  C#Cc1ccc2c(c1)C(c1ccccn1)=N[C@@H](C)c1c(C(=O)NC)ncn1-2     -10.1
2  C#Cc1ccc2c(c1)C(c1ccccc1Cl)=N[C@H](C)c1c(C(=O)N(C)CC)ncn1-2     -10.7

Then this compound:
INPUT: Can you look up the measured inhibition at 10 µM of CCc1noc(-c2ncn3c2[C@@H](C)N=C(c2ccccc2F)c2cc(-c4ccccc4)ccc2-3)n1 for me?
OUTPUT: 19.7

----------
We begin with a simple list: items and their reported inhibition at 10 µM.
Target: DAT (Homo sapiens, UniProt Q01959)
Construct: purchased NIMH Psychoactive Drug Screening Program (PDSP)
Sequence (Q01959 whole entry): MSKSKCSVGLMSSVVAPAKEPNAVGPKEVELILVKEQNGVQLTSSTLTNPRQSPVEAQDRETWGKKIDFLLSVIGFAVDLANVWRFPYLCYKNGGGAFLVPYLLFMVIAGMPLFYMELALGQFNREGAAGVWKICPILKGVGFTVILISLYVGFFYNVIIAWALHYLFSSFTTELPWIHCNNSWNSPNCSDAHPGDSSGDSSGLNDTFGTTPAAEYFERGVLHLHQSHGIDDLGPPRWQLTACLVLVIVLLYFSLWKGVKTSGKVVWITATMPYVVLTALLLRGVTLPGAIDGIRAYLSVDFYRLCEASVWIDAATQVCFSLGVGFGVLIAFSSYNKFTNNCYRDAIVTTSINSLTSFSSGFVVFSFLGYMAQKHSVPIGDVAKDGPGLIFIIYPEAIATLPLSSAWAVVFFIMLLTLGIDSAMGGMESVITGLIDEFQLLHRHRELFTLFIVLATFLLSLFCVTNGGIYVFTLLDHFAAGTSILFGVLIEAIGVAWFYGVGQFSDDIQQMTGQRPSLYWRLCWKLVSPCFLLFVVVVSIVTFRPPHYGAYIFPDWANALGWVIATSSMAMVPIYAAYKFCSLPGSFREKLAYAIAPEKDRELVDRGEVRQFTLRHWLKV
Assay: PDSP primary binding DAT
Details: 1.5 h, primary binding, 10,000 nM; last figure of the line = mean of the 4 before it; some tables list DAT twice; read-out: DAT, PDSP raw data, mean
Procedure: To determine if any off-target receptor-binding effects are present, all the novel ligands were sent to the National Institute of Mental Health (NIMH), Psychoactive Drug Screening Program (PDSP). […] The hERG-binding was also determined. […] The binding of a ligand to a receptor, ion channel, or transporter was determined in the […] of 10 µM of the appropriate reference compound. […] Radioactivity was then counted on a Microbeta counter. […]

Solved entries (count: 3):
>>> print(df.to_string())
                        structure_as_smiles  reported
0  CC(C)c1noc(-c2ncn3c2[C@@H](C)N=C(c2ccccc2F)c2cc(Cl)ccc2-3)n1     37.5%
1  C[C@H]1N=C(c2ccccc2F)c2cc(-c3ccccc3)ccc2-n2cnc(C(=O)N(C)C)c21     29.7%
2  C[C@H]1N=C(c2ccccc2F)c2cc(Cl)ccc2-n2cnc(-c3nc(C4CC4)no3)c21       40%

INPUT: Reported inhibition at 10 µM for DAT (Homo sapiens, UniProt Q01959), given CCc1noc(-c2ncn3c2[C@@H](C)N=C(c2ccccc2F)c2cc(Cl)ccc2-3)n1 ?
OUTPUT: 11%

INPUT: Please provide the recorded inhibition at 10 µM for CCc1noc(-c2ncn3c2CN=C(c2ccccc2F)c2cc(C4CC4)ccc2-3)n1 , tested on DAT (Homo sapiens, UniProt Q01959).
OUTPUT: 37.4%

INPUT: What inhibition at 10 µM appears in the records for this compound with DAT (Homo sapiens, UniProt Q01959)? CCc1noc(-c2ncn3c2[C@@H](C)N=C(c2ccccc2F)c2cc(C4CC4)ccc2-3)n1
OUTPUT: 22%

INPUT: Recorded inhibition at 10 µM for C#Cc1ccc2c(c1)C(c1ccccn1)=N[C@@H](C)c1c(C(=O)N(C)C)ncn1-2 with DAT (Homo sapiens, UniProt Q01959), please?
OUTPUT: 15.5%

INPUT: For the record C#Cc1ccc2c(c1)C(c1ccccc1F)=N[C@H](C)c1c(C(=S)N(C)C)ncn1-2 , what value of inhibition at 10 µM is listed for DAT (Homo sapiens, UniProt Q01959)?
OUTPUT: 29.7%

INPUT: I'm curious: which inhibition at 10 µM was measured for CCc1noc(-c2ncn3c2[C@@H](C)N=C(c2ccccc2F)c2cc(-c4ccccc4)ccc2-3)n1 tested on DAT (Homo sapiens, UniProt Q01959)?
OUTPUT: 49.4%

----------
Parameter: inhibition at 10 µM. Scope: all listed entries.
molecular target: peripheral benzodiazepine receptors (PBR) (Rattus norvegicus, UniProt P16257); experiment: PDSP radioligand binding at PBR; conditions: at 10,000 nM; N = 5; read-out: Binding Affinity at PBR % Inhibition (Primary)
Sequence (P16257 whole entry): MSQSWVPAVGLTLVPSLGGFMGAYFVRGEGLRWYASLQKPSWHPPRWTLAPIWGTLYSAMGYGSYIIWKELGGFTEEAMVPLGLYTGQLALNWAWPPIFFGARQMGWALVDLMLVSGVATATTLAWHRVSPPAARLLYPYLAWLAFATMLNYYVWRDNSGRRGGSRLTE
Only the number, expressed in %, is required.

Some molecules with recorded inhibition at 10 µM:
In [3]: df
Out[3]:
                        structure_as_smiles  reported
0  C[C@H]1N=C(c2ccccc2F)c2cc(Cl)ccc2-n2cnc(-c3nc(C4CC4)no3)c21        90
1  CCc1noc(-c2ncn3c2[C@@H](C)N=C(c2ccccc2F)c2cc(-c4ccccc4)ccc2-3)n1      71.8

INPUT: Give recorded inhibition at 10 µM with peripheral benzodiazepine receptors (PBR) (Rattus norvegicus, UniProt P16257) for the following molecule: C#Cc1ccc2c(c1)C(c1ccccc1F)=N[C@H](C)c1c(C(=S)N(C)C)ncn1-2
OUTPUT: 66.4

INPUT: Field: inhibition at 10 µM (peripheral benzodiazepine receptors (PBR) (Rattus norvegicus, UniProt P16257)). Entry: CCc1noc(-c2ncn3c2[C@@H](C)N=C(c2ccccc2F)c2cc(Cl)ccc2-3)n1
OUTPUT: 57.2

INPUT: I'm curious: which inhibition at 10 µM was measured for CCc1noc(-c2ncn3c2[C@@H](C)N=C(c2ccccc2F)c2cc(C4CC4)ccc2-3)n1 tested on peripheral benzodiazepine receptors (PBR) (Rattus norvegicus, UniProt P16257)?
OUTPUT: 86.4

INPUT: Enter reported inhibition at 10 µM observed with peripheral benzodiazepine receptors (PBR) (Rattus norvegicus, UniProt P16257) for CC(C)c1noc(-c2ncn3c2[C@@H](C)N=C(c2ccccc2F)c2cc(Cl)ccc2-3)n1
OUTPUT: 88

----------
target: Alpha2Beta2 (Rattus norvegicus, UniProt P12389+P12390); construct: purchased NIMH Psychoactive Drug Screening Program (PDSP); experiment: PDSP primary binding Alpha2Beta2; details: primary binding, 10,000 nM; last figure of the line = mean of the 4 before it; read-out: Alpha2Beta2, PDSP raw data, mean
Sequence (P12389 28-511): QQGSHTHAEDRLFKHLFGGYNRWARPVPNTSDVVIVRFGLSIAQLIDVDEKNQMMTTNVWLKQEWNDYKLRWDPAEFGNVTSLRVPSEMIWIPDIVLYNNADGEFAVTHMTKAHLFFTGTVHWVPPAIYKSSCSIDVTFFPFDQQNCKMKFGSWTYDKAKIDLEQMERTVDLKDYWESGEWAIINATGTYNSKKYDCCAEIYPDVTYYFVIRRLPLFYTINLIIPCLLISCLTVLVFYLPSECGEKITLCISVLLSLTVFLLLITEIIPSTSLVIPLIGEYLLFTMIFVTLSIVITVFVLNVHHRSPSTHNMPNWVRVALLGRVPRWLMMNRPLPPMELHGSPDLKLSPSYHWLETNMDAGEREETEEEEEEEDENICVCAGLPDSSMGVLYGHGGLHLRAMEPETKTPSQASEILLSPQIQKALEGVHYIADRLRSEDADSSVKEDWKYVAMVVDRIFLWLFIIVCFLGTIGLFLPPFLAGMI
Sequence (P12390 25-500): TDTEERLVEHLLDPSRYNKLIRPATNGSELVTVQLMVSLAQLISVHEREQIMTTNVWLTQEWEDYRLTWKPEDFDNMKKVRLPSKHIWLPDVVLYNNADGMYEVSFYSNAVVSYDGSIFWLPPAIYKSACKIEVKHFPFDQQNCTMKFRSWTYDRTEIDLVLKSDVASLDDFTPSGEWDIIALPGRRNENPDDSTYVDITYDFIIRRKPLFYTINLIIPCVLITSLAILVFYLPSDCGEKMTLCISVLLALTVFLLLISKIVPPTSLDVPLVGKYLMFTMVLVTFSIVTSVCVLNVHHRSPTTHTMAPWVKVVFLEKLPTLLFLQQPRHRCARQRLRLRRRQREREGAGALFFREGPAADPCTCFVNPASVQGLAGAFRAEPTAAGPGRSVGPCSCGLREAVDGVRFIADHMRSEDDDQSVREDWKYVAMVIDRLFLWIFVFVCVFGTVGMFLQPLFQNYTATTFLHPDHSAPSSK
Quantity kind: inhibition at 10 µM (%)
Report as a plain number; the unit % is understood.

See these solved cases before continuing.
>>> print(df.to_string())
                        structure_as_smiles                       experimental_system        quantity_kind  unit_info  reported
0  CCc1noc(-c2ncn3c2[C@@H](C)N=C(c2ccccc2F)c2cc(C4CC4)ccc2-3)n1  Alpha2Beta2 (Rattus norvegicus, UniProt P12389+P12390)  inhibition at 10 µM          %     -2.72
1  CCc1noc(-c2ncn3c2CN=C(c2ccccc2F)c2cc(C4CC4)ccc2-3)n1  Alpha2Beta2 (Rattus norvegicus, UniProt P12389+P12390)  inhibition at 10 µM          %     -6.67
2  C#Cc1ccc2c(c1)C(c1ccccn1)=N[C@@H](C)c1c(C(=O)NC)ncn1-2  Alpha2Beta2 (Rattus norvegicus, UniProt P12389+P12390)  inhibition at 10 µM          %     -3.67

In the following, a different molecule is considered.
INPUT: # lookup: inhibition at 10 µM of C[C@H]1N=C(c2ccccc2F)c2cc(Cl)ccc2-n2cnc(-c3nc(C4CC4)no3)c21
OUTPUT: 1.44

----------
molecular target: D1 (Homo sapiens, UniProt P21728); construct: purchased NIMH Psychoactive Drug Screening Program (PDSP); experiment: PDSP primary binding D1; conditions: 1.5 h; primary binding, 10,000 nM; last figure of the line = mean of the 4 before it; read-out: D1, PDSP raw data, mean
Sequence (P21728 whole entry): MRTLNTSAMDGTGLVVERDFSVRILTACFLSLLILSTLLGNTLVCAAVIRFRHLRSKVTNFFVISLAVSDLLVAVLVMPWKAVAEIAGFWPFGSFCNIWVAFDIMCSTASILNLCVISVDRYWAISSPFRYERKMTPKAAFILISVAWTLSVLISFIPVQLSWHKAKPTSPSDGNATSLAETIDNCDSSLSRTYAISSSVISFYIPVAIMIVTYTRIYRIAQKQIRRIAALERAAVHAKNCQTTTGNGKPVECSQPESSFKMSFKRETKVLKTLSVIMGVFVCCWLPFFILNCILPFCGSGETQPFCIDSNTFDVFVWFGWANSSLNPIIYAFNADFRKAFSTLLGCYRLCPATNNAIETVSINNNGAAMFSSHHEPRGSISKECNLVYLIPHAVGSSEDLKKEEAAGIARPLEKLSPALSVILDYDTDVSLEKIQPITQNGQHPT
Quantity kind: inhibition at 10 µM (%)
Field format: number, assumed %, no unit text.

For orientation, consider the following solved cases.
                                   compound        quantity_kind  reported
0  CCc1noc(-c2ncn3c2[C@@H](C)N=C(c2ccccc2F)c2cc(-c4ccccc4)ccc2-3)n1 [Compound 35]  inhibition at 10 µM      29.2
1  C[C@H]1N=C(c2ccccc2F)c2cc(Cl)ccc2-n2cnc(-c3nc(C4CC4)no3)c21 [Compound 38]  inhibition at 10 µM        43
2  C#Cc1ccc2c(c1)C(c1ccccc1Cl)=N[C@H](C)c1c(C(=O)NC)ncn1-2 [Compound 21]  inhibition at 10 µM      9.47
3  C#Cc1ccc2c(c1)C(c1ccccc1F)=N[C@H](C)c1c(C(=S)N(C)C)ncn1-2 [Compound 33]  inhibition at 10 µM     -35.4
4  C[C@H]1N=C(c2ccccc2F)c2cc(-c3ccccc3)ccc2-n2cnc(C(=O)N(C)C)c21 [Compound 5]  inhibition at 10 µM     -35.4
5  CCc1noc(-c2ncn3c2CN=C(c2ccccc2F)c2cc(C4CC4)ccc2-3)n1 [Compound 44]  inhibition at 10 µM      49.6

INPUT: Lab note: need inhibition at 10 µM with D1 (Homo sapiens, UniProt P21728) for entry C#Cc1ccc2c(c1)C(c1ccccc1Cl)=N[C@H](C)c1c(C(=O)N(C)CC)ncn1-2 [Compound 29] , please look it up.
OUTPUT: -31.5

INPUT: Recorded inhibition at 10 µM for C#Cc1ccc2c(c1)C(c1ccccn1)=N[C@@H](C)c1c(C(=O)NC)ncn1-2 [Compound 23] with D1 (Homo sapiens, UniProt P21728), please?
OUTPUT: -37.2

Cited source: paper PMC10303271
